System: Human immunodeficiency virus 1
assayInfo: Antiviral activity against M-tropic HIV1 Bal virus by cell culture based assay
Format: functional, organism-based
conditionDetails: Human immunodeficiency virus 1, Bal
propertyLabel: EC50 (nM)

A. O=C(C(=O)N1CCN(C(=O)c2ccccc2)CC1)c1c[nH]c2c(-c3nn[nH]n3)ccc(F)c12
B. O=C(C(=O)N1CCN(C(=O)c2ccccc2)CC1)c1c[nH]c2cccc(F)c12
C. O=C(C(=O)N1CCN(C(=O)c2ccccc2)CC1)c1c[nH]c2c(-c3ncon3)ccc(F)c12
Reorder the items by EC50, least to greatest. Sort the labels as requested; that list is your answer. A, C, B

---

assayInfo: Cytotoxicity against human HeLa CD4+ CCR5+ cells after 6 days by XTT assay
Type: cell-based
propertyLabel: CC50 at 144 h (µM)
API: value field is a number in µM; no unit string.

// known answers, use as guide
CNc1nc(-c2ccc(F)c3c(C(=O)C(=O)N4CCN(C(=O)c5ccccc5)CC4)c[nH]c23)no1    26
COc1ccc(-c2ncon2)c2[nH]cc(C(=O)C(=O)N3CCN(C(=O)c4ccccc4)CC3)c12    22

For the compound C[C@@H]1CN(C(=O)c2ccccc2)CCN1C(=O)C(=O)c1c[nH]c2c(-c3ncon3)ccc(F)c12 , give its reported CC50 at 144 h. 125
